Entries and their measured maximal fold induction follow.
Tested on: utrophin promoter
Experiment: utrophin promoter-luciferase reporter assay, 96-well format
Type: cell-based
Conditions: 96-well format, C2C12utrn cells, luciferase readout; read-out: Max. fold change
Method: The ability of test compounds to upregulate activity of the utrophin promoter was determined using the muscle cell line C2C12utrn, which contains the utrophin gene promoter linked to the protein-encoding sequence for luciferase. Using these cells, a chemical library was screened for compounds that activate the utrophin promoter. Light production was the readout. In some cases compounds were tested at a range of concentrations on test cells in a 96-well plate format.
Structures can show the parent of a compound that is named as a salt.

compound: O=c1cc(-c2ccccc2)oc2cc(O)cc(O)c12 [chrysin, 5,7-dihydroxy-2-phenyl-4H-chromen-4-one]
maximal fold induction: 3.4
--
compound: Oc1ccc(/C=C/c2cc(O)cc(O)c2)cc1 [resveratrol, trans-3,4′,5-trihydroxystilbene]
maximal fold induction: 2.2
--
compound: Nc1ccc(/N=N/c2ccccc2)c(N)n1 [phenazopyridine HCl, 3-phenyldiazenylpyridine-2,6-diamine]
maximal fold induction: 2.6
--
compound: Cc1oncc1C(=O)Nc1ccc(C(F)(F)F)cc1 [leflunomide]
maximal fold induction: 2.9
--
compound: C[C@]12CC[C@H]3C(=CCc4cc(O)ccc43)[C@@H]1CCC2=O [equilin]
maximal fold induction: 3.4
--
compound: c1ccc2[nH]c(-c3cscn3)nc2c1 [tiabendazole, 2-(1,3-thiazol-4-yl)-1H-benzoimidazole]
maximal fold induction: 2.1
--
compound: Nc1nc2ccc(OC(F)(F)F)cc2s1 [riluzole HCl, 6-(trifluoromethoxy)benzothiazol-2-amine]
maximal fold induction: 2.2
